- PROCEDURE_DETAILS: Components of the Cytosolic LPS Sensing Pathway: Gene Identification via Genome-wide siRNA Screen;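 also: robust z of the log signal after scaling to non-targeting control siRNA wells of the plate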
- EXPERIMENTAL_SETUP: RAW264.7 macrophages, IL-1a HTRF, actives lie on both sides, screened at 100 nM (by protocol), cells primed 5 h with Pam3CSK4 first
Among all 53,000 sequences or so, about 3,700 (7%) were called active. This excerpt belongs to a sample that is enriched for actives.
MEASURED_QUANTITY: z-score
Lab note: jot down the number only; don't add units.

Examples with their reported z-score follow.
| RESIDUES | RECORDED_RESULT |
| --- | --- |
| GCUGUGUGCCACUUUAUGUTT against Ebna1bp2 | 0.583 |
| GUCGCAUCUCCAAAAAUGGTT against Olfr340 | -1.46 |
| GCUAGAAGCCUGACAUUUUTT against Tbca | -0.538 |
| CCUGCACACCAAGUAUCUGTT against Ccl6 | -0.252 |
| GGGCAAUGGAAGAAUUCCUTT against BC030500 | -1.69 |
| CCUCUCAGAUGGUAUAUAATT against Olfr520 | -2.14 |

Lab note: GUCAAGAAUAUUAUGACCCTT against Vamp8 gave z-score of 0.516

Documented z-score of GCAGGGAAUAGCAAACUUATT against Nfil3 : 1.18

Lookup result for GGAAGGUCAUGUGAAUAUCTT against A930002I21Rik ; measured z-score: -1.6

What the record says about GGAAAUUUGCCGGCCAAAUTT against Fam83a : z-score is 0.557
